# study-target: β5i subunit of isolated human 20S proteasome (Homo sapiens)
# Construct: purchased Enzo Life Sciences
# measurement-description: Proteasome inhibition assay (20 S Proteasome Assay Kit, Suc‐LLVY‐AMC)
# Format: biochemical
# settings: c=100 nM; read-out: Rel. Inhibition β5i
Peptide text beside a SMILES is read from it. * marks the point of attachment. Cbz = O=C(OCc1ccccc1)*; OtBu = CC(C)(C)O*
Below, each of the molecules is paired with its reported inhibition at 0.1 µM value.
Note: unit % is implicit; provide only the numeric part.

Would you please look over these solved cases?
Cc1cc(C)c(Oc2ccccc2)cc1NC(=O)C(=O)[C@H](CC(C)C)NC(=O)[C@H](CC(C)C)NC(=O)[C@H](CC(C)C)NC(=O)c1cc(Cl)ccc1Cl: 58
CC(C)C[C@@H](C=O)NC(=O)[C@H](CC(=O)OC(C)(C)C)NC(=O)[C@H](CC(C)C)NC(=O)OCc1ccccc1 [Compound 5, BSc2118, reference compound] (Cbz-Leu-Asp(OtBu)-Leu-aldehyde): 11
Cc1cc(C)c(Oc2ccccc2)cc1NC(=O)C(=O)[C@H](CC(C)C)NC(=O)[C@H](CC(C)C)NC(=O)[C@H](CC(C)C)NC(=O)OCc1ccccc1: 12

Next:
Value of measured inhibition at 0.1 µM for the entry CC(C)C[C@@H](C=O)NC(=O)[C@H](CC(C)C)NC(=O)[C@H](CC(C)C)NC(=O)Cn1cnc2ccccc2c1=O : 11
